experiment: Inhibition of Influenza A/California/04/09 H1N1 PA endonuclease (1 to 204 residues) expressed in Escherichia coli BL21 (RIL) cells using (6-FAM)TGGCAATATCAGCTCCACA(MGBNFQ) DNA probe as substrate measured after 5 to 90 mins by fluorescence assay; set-up: species or system Influenza A virus (A/California/04/2009(H1N1))
Observable: IC50 (µM)
Dear colleague, please return just the value in µM, with no unit written.

{"columns": ["Smiles Notation", "Result Units", "IC50"],
 "data": [
  ["O=c1[nH]cc(Br)cc1O", "µM", 16]
]}

Looking for the measured IC50 of `O=C(O)c1ccc(-c2cc(O)c(=O)[nH]c2-c2ccc(F)cc2)cc1` , can you help?
0.011

Reference source: ChEMBL document CHEMBL4699657
